The reported numbers originate from ChEMBL document CHEMBL1777760.

Carbonic anhydrase 1 (Homo sapiens): reported Ki for various compounds.
Sequence (P00915 whole entry): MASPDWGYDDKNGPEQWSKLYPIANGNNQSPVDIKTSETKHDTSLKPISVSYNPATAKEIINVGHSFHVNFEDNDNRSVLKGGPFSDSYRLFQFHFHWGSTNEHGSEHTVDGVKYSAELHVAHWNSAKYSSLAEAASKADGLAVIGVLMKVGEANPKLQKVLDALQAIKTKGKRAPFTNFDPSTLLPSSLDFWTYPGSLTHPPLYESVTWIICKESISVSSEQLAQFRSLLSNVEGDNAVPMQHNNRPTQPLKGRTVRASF
The figure you give is taken to be in µM; do not add the unit.

# COMPOUND, Ki [µM]
records = [
    ("CCN(CC)C(=S)S [DITIOCARB SODIUM]", 790),
]

Now look at this entry.
Q) Given the compound NS(=O)(=O)O [SODIUM SULFIMIDATE] , what is its reported Ki?
A) 310
